- Tested on: IICR (IP3 induced calcium release) in CHO cells
- protocol_description: Assay of IICR (IP3 induced calcium release)-inhibiting action
- Format: cell-based, Chinese hamster
- condition: Cricetulus griseus, CHO, test compound 10 μmol; CHO cells, 10 μM ATP; read-out: IICR level (percentage of inhibition)
Here, each record is paired with measured inhibition at 10 µM data.
Write the value in % as a bare number.

// solved cases for inhibition at 10 µM follow
compound | inhibition at 10 µM / %
CCCCN(CCC(=O)c1ccncc1)Cc1ccccc1 | 18
CCCCN(CCC(=O)c1ccco1)Cc1ccccc1 | 22
CN(CCO)CCC(=O)c1cccnc1 | 0

Q: Item under review: Cc1ccc(C(=O)CCN(Cc2ccccc2)C(C)C)cc1 . Reported inhibition at 10 µM?
Result: 30

Q: Same thing, different compound: CN(CCC(=O)c1ccc2ccccc2c1)Cc1ccccc1
Result: 0

Q: Same thing, different compound: CCCCN(CCO)CCC(=O)c1ccncc1
Result: 0

Q: Same thing, different compound: CC(C)N(CCO)CCC(=O)c1nccs1
Result: 20

Q: Same thing, different compound: C=CC(=O)c1cccc2ccccc12
Result: 80

###

- System: IICR (IP3 induced calcium release) in CHO cells
- protocol_description: Assay of IICR (IP3 induced calcium release)-inhibiting action
- Type: cell-based, Chinese hamster
- condition: Cricetulus griseus, CHO, test compound 10 μmol; CHO cells, 10 μM ATP; read-out: IICR level (percentage of inhibition)
Each entry gets false (0) if its inhibition at 10 µM stays under 20%, and true (1) if its inhibition at 10 µM is 20% or above.

Q: Hi, just wondering whether CC(C)N(CCC(=O)c1cc2ccccc2s1)Cc1ccccc1 [Example 283] shows inhibition at 10 µM of 20% or higher.
Result: true (1)

###

- System: IICR (IP3 induced calcium release) in CHO cells
- protocol_description: Assay of IICR (IP3 induced calcium release)-inhibiting action
- Format: cell-based, Chinese hamster
- condition: Cricetulus griseus, CHO, test compound 10 μmol; CHO cells, 10 μM ATP; read-out: IICR level (percentage of inhibition)
endpoint_label: inhibition at 10 µM (%)
Write the value in % as a bare number.

// solved cases for inhibition at 10 µM follow
compound | endpoint_label | units_symbol | experimental_result
CC(CN(Cc1ccccc1)C(C)C)C(=O)c1ccccc1F (stereo not shown) | inhibition at 10 µM | % | 0
CC(C)N(CCC(=O)c1ccc(C#N)cc1)Cc1ccccc1 | inhibition at 10 µM | % | 90
CN(CCO)CCC(=O)c1ccco1 | inhibition at 10 µM | % | 0
CC(C)N(CCO)CCC(=O)c1ccccn1 | inhibition at 10 µM | % | 40
O=C(CCN(CCO)Cc1ccccc1)c1ccncc1 | inhibition at 10 µM | % | 20
O=C(CCN(CCO)c1ccccc1)c1ccc(-c2ccccc2)cc1 | inhibition at 10 µM | % | 70
CC(C)N(CCO)CCC(=O)c1ccncc1 | inhibition at 10 µM | % | 20
CN(CCC(=O)c1ccsc1)Cc1ccccc1 | inhibition at 10 µM | % | 10
O=C(CCN(CCO)c1ccccc1)c1ccncc1 | inhibition at 10 µM | % | 20
CC(C)N(CCC(=O)c1ccc2ccccc2c1)Cc1ccccc1 | inhibition at 10 µM | % | 10

Q: Item under review: Cn1cccc1C(=O)CCN(CCO)Cc1ccccc1 . Reported inhibition at 10 µM?
Result: 0

Q: Same thing, different compound: COC(=O)C(CSC)NCCC(=O)c1ccc(Br)s1 (stereo not shown)
Result: 26

Q: Same thing, different compound: CN(CCC(=O)c1ccc(Oc2ccccc2)cc1)Cc1ccccc1
Result: 30

Q: Same thing, different compound: O=C(CCN(CCO)Cc1ccccc1)c1cccs1
Result: 0

Q: Same thing, different compound: CCCCN(CCO)CCC(=O)c1ccc(Br)s1
Result: 80

Q: Same thing, different compound: Cc1nc(C)c(C(=O)CCNCCNCCO)s1
Result: 0

Q: Same thing, different compound: CC(C)N(CCO)CCC(=O)c1ccc2ccccc2c1
Result: 0

Q: Same thing, different compound: Cc1csc(C(=O)CCN(Cc2ccccc2)C(C)(C)C)c1
Result: 80

Q: Same thing, different compound: O=C(CCN(CCO)Cc1ccccc1)c1ccc2c(Cl)cccc2c1
Result: 30

Q: Same thing, different compound: CC(C)N(CCO)CCC(=O)c1ccc[nH]1
Result: 0

Q: Same thing, different compound: CCN(CCC(=O)c1ccc(Br)s1)Cc1ccccc1
Result: 70

Q: Same thing, different compound: CC(=O)CCN(Cc1ccccc1)C(C)C
Result: 0

Q: Same thing, different compound: CC(C)N(CCC(=O)c1ccc(F)cc1)Cc1ccccc1
Result: 20
